- Measurement target: purified recombinant linear UB dimers

[
  {
    "Protein": "His-tagged OTU3 (protein) MELKSSSNNNILEQLRNGFARFELVSSPTASVSDSISSTSLPASFISTTKGNSYVFFARINSSMNRSPAAKKVEKYAVDRVKGDGRCLFRALVKGMAFNKGITLNPQRERDDADELRMAVKEVICNDPKEREKYKEALVAITVDESLKRFCQRIGRHDFWGGESELLVLSKLCKQPIIVYIPEHEHGRGGGYGPGFIPIQEYGSEFRGGWGKGKTNKNVVRLLYSGRNHYDLLR",
    "in vitro deubiquitylation activity": "-"
  }
]
